From: patent US20240400670A1

Molecular target: T1, human IL-23 (Sino Biological, CT048-H08H) (human, UniProt Q9NPF7 20-189; P29460 23-328)
T1 construct: also called human IL-23 protein; Human IL-23 p19
T1 sequence (looked up) 1: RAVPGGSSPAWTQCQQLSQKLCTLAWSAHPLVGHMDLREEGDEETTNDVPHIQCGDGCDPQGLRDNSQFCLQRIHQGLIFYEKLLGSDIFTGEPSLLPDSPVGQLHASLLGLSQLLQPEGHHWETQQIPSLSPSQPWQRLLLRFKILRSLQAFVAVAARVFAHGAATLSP
T1 sequence (looked up) 2: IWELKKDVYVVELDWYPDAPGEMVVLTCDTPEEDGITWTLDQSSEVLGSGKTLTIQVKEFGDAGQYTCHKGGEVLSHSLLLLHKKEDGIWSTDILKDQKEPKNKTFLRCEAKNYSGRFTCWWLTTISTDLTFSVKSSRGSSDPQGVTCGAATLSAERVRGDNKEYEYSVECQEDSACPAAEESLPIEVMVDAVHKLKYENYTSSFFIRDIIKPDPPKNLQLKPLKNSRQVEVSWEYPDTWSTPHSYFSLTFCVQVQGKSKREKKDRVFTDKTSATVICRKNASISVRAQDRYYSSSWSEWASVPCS
Assay: SPR (Biacore), Protein A capture of sample, 1:1 model
Description: A certain amount of test sample was subjected to affinity capture by a biosensor chip Protein A (GE, 29127556), and then antigens at a series of concentration gradients were allowed to flow on the surface of the chip. The reaction signals were detected in real time by using Biacore (GE, 8 K) to obtain association and dissociation curves. […]
MEASUREMENT KIND: Kd (nM)
One number for each entry, in nM.

{"BINDER": "Hu38-14 (antibody, human IgG1, kappa, L234A L235A, V domains shown, humanized mAb38, IgG1/kappa) VH: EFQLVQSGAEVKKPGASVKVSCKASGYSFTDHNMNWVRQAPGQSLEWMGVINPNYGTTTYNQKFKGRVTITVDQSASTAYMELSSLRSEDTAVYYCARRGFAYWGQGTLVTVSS VL: DIVMTQTPLSLPVTPGEPASISCRSSKSLLYKDGKTYLNWFLQKPGQSPQLLIYLMSTRASGVPDRFSGSGSGTDLTLKISRVEAEDVGVYYCQQIAEYPFTFGSGTKLEIKR", "MEASUREMENT KIND": "Kd", "MEASUREMENT UNIT": "nM", "QUANTITATIVE RESULT": 0.175}

Field: next binder
Ask: # input binder: Hu38-10 (antibody, human IgG1, kappa, L234A L235A, V domains shown, humanized mAb38, IgG1/kappa) VH: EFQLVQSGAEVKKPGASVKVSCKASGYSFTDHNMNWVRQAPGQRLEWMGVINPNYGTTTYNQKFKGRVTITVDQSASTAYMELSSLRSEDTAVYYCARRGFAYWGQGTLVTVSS VL: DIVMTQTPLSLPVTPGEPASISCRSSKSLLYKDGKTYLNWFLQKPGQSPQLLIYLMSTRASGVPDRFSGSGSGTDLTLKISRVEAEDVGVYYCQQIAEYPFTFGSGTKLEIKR ; wanted: its Kd
Reply: 0.197
